# Test system: Colorectal cell lines KM 12 (harboring endogenous TPM3-TRKA fusion gene)
# experiment_summary: Cell proliferation assay, KM12 cells (CellTiter-Glo)
# Assay type: cell-based
# measurement_context: Homo sapiens, 72 hours incubation
property_name: IC50 (nM)
Provide the reading as a plain figure in nM.

INPUT: Look up IC50 for this molecule: CNC(=O)C1Nc2ccn3ncc(c3n2)C(=O)NC[C@H](C)Oc2ccc(F)cc21 (some centres unmarked) [Compound 61]
OUTPUT: 73.7

INPUT: Look up IC50 for this molecule: C[C@H]1Nc2ccn3ncc(c3n2)C(=O)N[C@@H](C(F)F)COc2ccc(F)cc21 [Compound 16]
OUTPUT: 0.4

INPUT: Look up IC50 for this molecule: C[C@H]1Nc2ccn3ncc(c3n2)C(=O)NC[C@@H](CF)Oc2ccc(F)cc21 [Compound 10]
OUTPUT: 1.4

INPUT: Look up IC50 for this molecule: C[C@H]1CNC(=O)c2cnn3ccc(nc23)NCc2cc(F)ccc2O1 [Compound 29]
OUTPUT: 5.5

INPUT: Look up IC50 for this molecule: C[C@H]1Nc2ccn3ncc(c3n2)C(=O)NC[C@H](CF)Oc2ccc(F)cc21 [Compound 9]
OUTPUT: 0.4

INPUT: Look up IC50 for this molecule: CNC(=O)[C@@H]1CNC(=O)c2cnn3ccc(nc23)N[C@H](C)c2cc(F)ccc2O1 [Compound 14]
OUTPUT: 180

INPUT: Look up IC50 for this molecule: CC[C@@H]1CNC(=O)c2cnn3ccc(nc23)N[C@H](C)c2cc(F)cnc2O1 [Compound 58]
OUTPUT: 0.2

INPUT: Look up IC50 for this molecule: CCc1nn2ccc3nc2c1C(=O)NC[C@H](C)Oc1ccc(F)cc1[C@@H](C)N3 [Compound 39]
OUTPUT: 315

INPUT: Look up IC50 for this molecule: C[C@H]1CNC(=O)c2cnn3ccc(nc23)N[C@H](CC#N)c2cc(F)ccc2O1 [Compound 38]
OUTPUT: 7.1

INPUT: Look up IC50 for this molecule: C[C@H]1Nc2ccn3ncc(c3n2)C(=O)N[C@H]2CCCC[C@@H]2Oc2ccc(F)cc21 [Compound 44]
OUTPUT: 56

INPUT: Look up IC50 for this molecule: C[C@H]1Nc2ccn3ncc(c3n2)C(=O)NC[C@H](C(F)F)Oc2ccc(F)cc21 [Compound 18]
OUTPUT: 0.2

INPUT: Look up IC50 for this molecule: Cc1cn2ncc3c2nc1N[C@H](C)c1ccccc1OCCNC3=O [Compound 37]
OUTPUT: 300

INPUT: Look up IC50 for this molecule: C[C@H]1Nc2ccn3ncc(c3n2)C(=O)NC[C@@H](CO)Oc2ccc(F)cc21 [Compound 7]
OUTPUT: 16.8

INPUT: Look up IC50 for this molecule: C[C@H]1Nc2ccn3ncc(c3n2)C(=O)N[C@@H](CN(C)C)COc2ccc(F)cc21 [Compound 13]
OUTPUT: 69

INPUT: Look up IC50 for this molecule: C[C@H]1CNC(=O)c2cnn3ccc(nc23)N[C@H](C)c2ncccc2O1 [Compound 32]
OUTPUT: 192

----------
Provide the recorded IC50 for the entries that follow.
# Test system: essential thrombocythemia cell line SET-2 cells (harboring endogenous JAK2 point mutation)
# experiment_summary: Cell proliferation assay, SET-2 cells (CellTiter-Glo)
# Type: cell-based
# measurement_context: Homo sapiens, 72 hours incubation, read-out: Cell Proliferation IC50 SET2
Provide the reading as a plain figure in nM.

INPUT: Look up IC50 for this compound: CC[C@H]1CNC(=O)c2cnn3ccc(nc23)N[C@H](CC)c2cc(F)ccc2O1
OUTPUT: 404

INPUT: Look up IC50 for this compound: CC[C@@H]1CNC(=O)c2cnn3ccc(nc23)N[C@H](C)c2cc(F)ccc2O1
OUTPUT: 67.6

INPUT: Look up IC50 for this compound: C[C@H]1Nc2ccn3ncc(c3n2)C(=O)NC[C@H](CF)Oc2ccc(F)cc21
OUTPUT: 93

INPUT: Look up IC50 for this compound: C[C@H]1Nc2ccn3ncc(c3n2)C(=O)NC[C@@H](CO)Oc2ccc(F)cc21
OUTPUT: 190

INPUT: Look up IC50 for this compound: C[C@H]1Nc2ccn3ncc(c3n2)C(=O)NC[C@@H](CN(C)C)Oc2ccc(F)cc21
OUTPUT: 300

INPUT: Look up IC50 for this compound: C[C@H]1Nc2ccn3ncc(c3n2)C(=O)N[C@H]2CCC[C@H]2Oc2ccc(F)cc21
OUTPUT: 78.5

INPUT: Look up IC50 for this compound: C[C@H]1Nc2ccn3ncc(c3n2)C(=O)N[C@H]2CCC[C@@H]2Oc2ccc(F)cc21
OUTPUT: 400

INPUT: Look up IC50 for this compound: Cc1cn2ncc3c2nc1N[C@H](C)c1cc(F)ccc1OCCNC3=O
OUTPUT: 899

----------
# assayed_system: EML4-ALK Ba/F3 (Homo sapiens)
# Construct: fused on or other part: Q9HC35 (Echinoderm microtubule-associated protein-like 4)
# Sequence (Q9UM73 whole entry, change not shown, the tested form may be a part): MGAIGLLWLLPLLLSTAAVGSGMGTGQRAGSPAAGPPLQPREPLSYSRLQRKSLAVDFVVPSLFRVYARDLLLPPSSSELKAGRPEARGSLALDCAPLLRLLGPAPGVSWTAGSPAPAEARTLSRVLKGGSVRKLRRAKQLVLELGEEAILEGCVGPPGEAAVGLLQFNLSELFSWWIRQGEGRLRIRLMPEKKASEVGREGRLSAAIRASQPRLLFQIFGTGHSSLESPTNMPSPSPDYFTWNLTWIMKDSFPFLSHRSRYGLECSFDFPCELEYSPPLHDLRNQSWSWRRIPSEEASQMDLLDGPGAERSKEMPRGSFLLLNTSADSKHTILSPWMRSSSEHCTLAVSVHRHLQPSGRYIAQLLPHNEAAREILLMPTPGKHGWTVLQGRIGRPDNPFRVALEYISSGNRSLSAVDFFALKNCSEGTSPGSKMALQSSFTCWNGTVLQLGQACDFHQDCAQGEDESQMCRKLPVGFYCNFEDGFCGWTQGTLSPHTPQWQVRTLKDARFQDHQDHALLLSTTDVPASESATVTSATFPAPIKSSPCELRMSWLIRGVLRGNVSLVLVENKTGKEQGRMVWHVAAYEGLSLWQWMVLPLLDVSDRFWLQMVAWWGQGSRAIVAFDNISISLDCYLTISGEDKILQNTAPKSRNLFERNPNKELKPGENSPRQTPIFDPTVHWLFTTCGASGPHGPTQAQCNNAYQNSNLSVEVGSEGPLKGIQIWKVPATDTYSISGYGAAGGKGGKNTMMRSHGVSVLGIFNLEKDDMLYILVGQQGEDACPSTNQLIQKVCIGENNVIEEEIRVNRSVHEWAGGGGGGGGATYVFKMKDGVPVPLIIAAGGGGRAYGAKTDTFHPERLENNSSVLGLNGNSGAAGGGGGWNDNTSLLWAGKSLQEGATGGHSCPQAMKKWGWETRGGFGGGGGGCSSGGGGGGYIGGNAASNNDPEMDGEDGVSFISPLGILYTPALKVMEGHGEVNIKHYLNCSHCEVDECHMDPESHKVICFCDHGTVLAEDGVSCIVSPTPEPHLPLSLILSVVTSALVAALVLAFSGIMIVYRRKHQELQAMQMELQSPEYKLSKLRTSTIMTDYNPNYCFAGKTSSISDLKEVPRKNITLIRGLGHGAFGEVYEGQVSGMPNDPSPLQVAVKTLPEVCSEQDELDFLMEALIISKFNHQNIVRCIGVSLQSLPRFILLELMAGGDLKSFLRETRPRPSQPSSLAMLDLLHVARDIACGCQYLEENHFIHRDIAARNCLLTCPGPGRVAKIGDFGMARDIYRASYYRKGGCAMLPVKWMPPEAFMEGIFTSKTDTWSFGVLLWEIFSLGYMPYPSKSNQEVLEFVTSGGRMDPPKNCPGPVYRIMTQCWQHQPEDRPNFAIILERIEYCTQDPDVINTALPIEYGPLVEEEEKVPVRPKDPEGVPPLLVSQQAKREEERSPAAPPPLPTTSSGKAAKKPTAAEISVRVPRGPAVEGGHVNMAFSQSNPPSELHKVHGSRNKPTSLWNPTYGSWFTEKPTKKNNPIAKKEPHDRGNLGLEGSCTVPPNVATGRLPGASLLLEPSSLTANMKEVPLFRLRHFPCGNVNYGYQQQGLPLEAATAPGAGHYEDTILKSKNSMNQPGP
# experiment_summary: Cell proliferation assay, EML4-ALK Ba/F3 stable cell line (CellTiter-Glo)
# Assay type: cell-based
# measurement_context: Ba/F3-EML4-ALK wild type (variant 1) cells, 72 hours compound incubation; read-out: Cell Proliferation IC50 EML4-ALK Ba/F3
Provide the recorded log10 of GI50 for the entries that follow.
# values: log10(GI50), units nM

INPUT: Look up log10 of GI50 for this molecule: COC[C@@H]1CNC(=O)c2cnn3ccc(nc23)N[C@H](C)c2cc(F)ccc2O1
OUTPUT: 1.95

INPUT: Look up log10 of GI50 for this molecule: C[C@H]1Nc2ccn3ncc(c3n2)C(=O)N[C@@H]2CCC[C@H]2Oc2ccc(F)cc21
OUTPUT: 1.90

INPUT: Look up log10 of GI50 for this molecule: C[C@H]1CNC(=O)c2c[nH]c3ncc(nc23)N[C@H](C)c2cc(F)ccc2O1
OUTPUT: 3.48

INPUT: Look up log10 of GI50 for this molecule: C[C@H]1Nc2ccn3ncc(c3n2)C(=O)NC[C@H](CO)Oc2ccc(F)cc21
OUTPUT: 3.31

INPUT: Look up log10 of GI50 for this molecule: O=C1NCCOc2ccc(F)cc2[C@@H](CCF)Nc2ccn3ncc1c3n2
OUTPUT: 2.66

INPUT: Look up log10 of GI50 for this molecule: C[C@H]1Nc2ccn3ncc(c3n2)C(=O)N2CC[C@H](C2)Oc2ccc(F)cc21
OUTPUT: 3.48

INPUT: Look up log10 of GI50 for this molecule: C[C@@H]1Nc2ccn3ncc(c3n2)C(=O)NC[C@H](C)Oc2ncc(F)cc21
OUTPUT: 3.30

INPUT: Look up log10 of GI50 for this molecule: CC(C)(O)[C@H]1Nc2ccn3ncc(c3n2)C(=O)NCCOc2ccc(F)cc21
OUTPUT: 2.68

INPUT: Look up log10 of GI50 for this molecule: C[C@H]1Nc2ccn3ncc(c3n2)C(=O)NC[C@@H](CN(C)C)Oc2ccc(F)cc21
OUTPUT: 2.85

INPUT: Look up log10 of GI50 for this molecule: C[C@H]1Nc2ccn3ncc(c3n2)C(=O)N[C@@H]2CCCC[C@@H]2Oc2ccc(F)cc21
OUTPUT: 2.70

INPUT: Look up log10 of GI50 for this molecule: C[C@H]1Nc2ccn3ncc(c3n2)C(=O)N[C@H](CF)COc2ccc(F)cc21
OUTPUT: 3.39

INPUT: Look up log10 of GI50 for this molecule: CNC(=O)C1Nc2ccn3ncc(c3n2)C(=O)NC[C@H](C)Oc2ccc(F)cc21 (stereo partly drawn)
OUTPUT: 3.90

INPUT: Look up log10 of GI50 for this molecule: C[C@H]1Nc2ccn3ncc(c3n2)C(=O)N[C@@H](CN(C)C)COc2ccc(F)cc21
OUTPUT: 3.17

INPUT: Look up log10 of GI50 for this molecule: C[C@H]1Nc2ccn3ncc(c3n2)C(=O)N[C@@H](C(F)F)COc2ccc(F)cc21
OUTPUT: 3.28

INPUT: Look up log10 of GI50 for this molecule: CC[C@H]1COc2ccc(F)cc2[C@@H](C)Nc2ccn3ncc(c3n2)C(=O)N1
OUTPUT: 2.95

INPUT: Look up log10 of GI50 for this molecule: C[C@H]1Nc2ccn3ncc(c3n2)C(=O)N[C@H](C(F)F)COc2ccc(F)cc21
OUTPUT: 3.43

INPUT: Look up log10 of GI50 for this molecule: C[C@H]1Nc2ccn3ncc(c3n2)C(=O)N[C@H]2CCCC[C@@H]2Oc2ccc(F)cc21
OUTPUT: 3.48

INPUT: Look up log10 of GI50 for this molecule: C[C@H]1Nc2ccn3ncc(c3n2)C(=O)N[C@H]2CNC[C@H]2Oc2ccc(F)cc21
OUTPUT: 3.70

INPUT: Look up log10 of GI50 for this molecule: C[C@H]1Nc2ccn3ncc(c3n2)C(=O)N[C@@H]2CCC[C@@H]2Oc2ccc(F)cc21
OUTPUT: 1.90

INPUT: Look up log10 of GI50 for this molecule: CCc1nn2ccc3nc2c1C(=O)NC[C@H](C)Oc1ccc(F)cc1[C@@H](C)N3
OUTPUT: 3.48

INPUT: Look up log10 of GI50 for this molecule: CC[C@@H]1COc2ccc(F)cc2[C@@H](C)Nc2ccn3ncc(c3n2)C(=O)N1
OUTPUT: 2.83

INPUT: Look up log10 of GI50 for this molecule: C[C@H]1Nc2ccn3ncc(c3n2)C(=O)N[C@H]2CCC[C@H]2Oc2ccc(F)cc21
OUTPUT: 2.18

INPUT: Look up log10 of GI50 for this molecule: C[C@H]1Nc2ccn3ncc(c3n2)C(=O)NC[C@H](C(F)F)Oc2ccc(F)cc21
OUTPUT: 1.45

INPUT: Look up log10 of GI50 for this molecule: CC[C@H]1CNC(=O)c2cnn3ccc(nc23)N[C@H](C)c2cc(F)ccc2O1
OUTPUT: 2.14

INPUT: Look up log10 of GI50 for this molecule: CC[C@H]1Nc2ccn3ncc(c3n2)C(=O)NCCOc2ccc(F)cc21
OUTPUT: 2.61

INPUT: Look up log10 of GI50 for this molecule: C[C@H]1CNC(=O)c2cnn3ccc(nc23)NC(C(=O)N(C)C)c2cc(F)ccc2O1 (stereo partly drawn)
OUTPUT: 3.48

INPUT: Look up log10 of GI50 for this molecule: C[C@H]1Nc2ccn3ncc(c3n2)C(=O)N2CCC[C@@H](C2)Oc2ccc(F)cc21
OUTPUT: 3.48

The reported numbers originate from patent US11008337B2.
